Overview of reported pest or weed control at 0.04 µg/cm2, 0.04 µg/cm2 across a group of compounds:
Test system: Dermacentor variabilis
Test: In vitro contact test with adult hard ticks (Dermacentor variabilis)
Conditions: dose 0.04 μg/cm^2, 48 h, read-out: acaricidal activity
Write the value in % as a bare number.

Please review the following examples before continuing.
- Compound: "O=C(Nc1cccc(C(=O)Nc2c(I)cc(C(F)(C(F)(F)F)C(F)(F)F)cc2OC(F)(F)F)c1F)c1ccc(F)cc1"
  Study system: "Dermacentor variabilis"
  U: "%"
  Quantitative readout: 90
- Compound: "CN(C(=O)c1ccc(F)cc1)c1cccc(C(=O)Nc2c(I)cc(C(F)(C(F)(F)F)C(F)(F)C(F)(F)F)cc2OC(F)F)c1F (stereo not shown)"
  Study system: "Dermacentor variabilis"
  U: "%"
  Quantitative readout: 90
- Compound: "CN(C(=O)c1ccc(C#N)cc1)c1cccc(C(=O)Nc2c(I)cc(C(F)(C(F)(F)F)C(F)(F)C(F)(F)F)cc2C(F)(F)F)c1F (stereo not shown)"
  Study system: "Dermacentor variabilis"
  U: "%"
  Quantitative readout: 90
- Compound: "N#Cc1ccc(C(=O)Nc2cccc(C(=O)Nc3c(I)cc(C(F)(C(F)(F)F)C(F)(F)C(F)(F)F)cc3C(F)(F)F)c2F)cc1 (stereo not shown)"
  Study system: "Dermacentor variabilis"
  U: "%"
  Quantitative readout: 90
- Compound: "O=C(Nc1cccc(C(=O)Nc2c(Br)cc(C(F)(C(F)(F)F)C(F)(F)C(F)(F)F)cc2OC(F)F)c1F)c1ccc(F)cc1 (stereo not shown)"
  Study system: "Dermacentor variabilis"
  U: "%"
  Quantitative readout: 90
- Compound: "O=C(Nc1cccc(C(=O)Nc2c(I)cc(C(F)(C(F)(F)F)C(F)(F)F)cc2OC(F)(F)F)c1F)c1ccc(F)c(F)c1"
  Study system: "Dermacentor variabilis"
  U: "%"
  Quantitative readout: 90
- Compound: "O=C(Nc1cccc(C(=O)Nc2c(Br)cc(C(F)(C(F)(F)F)C(F)(F)F)cc2OC(F)F)c1F)c1ccc(F)cc1"
  Study system: "Dermacentor variabilis"
  U: "%"
  Quantitative readout: 90
- Compound: "O=C(Nc1cccc(C(=O)Nc2c(I)cc(C(F)(C(F)(F)F)C(F)(F)F)cc2OC(F)F)c1F)c1ccc(F)cc1"
  Study system: "Dermacentor variabilis"
  U: "%"
  Quantitative readout: 90

Problem: Report pest or weed control at 0.04 µg/cm2, 0.04 µg/cm2 for O=C(Nc1cccc(C(=O)Nc2c(I)cc(C(F)(C(F)(F)F)C(F)(F)F)cc2C(F)(F)F)c1F)c1ccc(C(F)F)nc1 please.
Solution: 90
